- experimental target: T1, His9-hMSR1 (human MSR1 extracellular domain) (Homo sapiens, UniProt P21757)
- T1 construct: human MSR1 extracellular domain expressed with a N-terminal nonahistidine tag; His9 (nonahistidine) (N); purchased R&D Systems 2708-MS
- T1 sequence (P21757 77-451 limits assumed): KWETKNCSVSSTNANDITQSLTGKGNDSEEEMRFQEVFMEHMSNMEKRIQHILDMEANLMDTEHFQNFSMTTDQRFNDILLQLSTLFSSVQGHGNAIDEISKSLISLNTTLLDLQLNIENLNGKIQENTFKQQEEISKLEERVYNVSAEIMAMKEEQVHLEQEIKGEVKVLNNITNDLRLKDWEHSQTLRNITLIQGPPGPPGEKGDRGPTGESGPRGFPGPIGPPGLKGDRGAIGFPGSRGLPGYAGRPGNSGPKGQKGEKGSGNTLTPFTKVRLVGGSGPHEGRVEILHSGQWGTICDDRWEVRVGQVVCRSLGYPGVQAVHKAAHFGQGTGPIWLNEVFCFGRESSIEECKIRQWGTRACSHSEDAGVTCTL
- assay procedure: Biacore surface plasmon resonance binding kinetics of anti-MSR1 mAbs, antibody-capture format
- settings: 25° C.; analyte His9-hMSR1; * = no dissociation observed, kd manually fixed at 1.00E−05; NB = no binding observed
value kind: log10 kd (log10 of the value in s⁻¹)
// do not treat as linear: log10 of kd, unit s⁻¹

• H1H27747P-N297Q (antibody, V domains shown) VH: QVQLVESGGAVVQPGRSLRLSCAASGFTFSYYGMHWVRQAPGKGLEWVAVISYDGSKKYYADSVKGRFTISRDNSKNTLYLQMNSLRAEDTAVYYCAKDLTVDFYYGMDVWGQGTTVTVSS VL: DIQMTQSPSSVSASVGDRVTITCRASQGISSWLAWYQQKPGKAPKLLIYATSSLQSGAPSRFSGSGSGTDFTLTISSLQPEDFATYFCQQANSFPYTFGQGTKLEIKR = -3.19

-- ask Identify the reported log10 kd for the following entry. H1H21227N-N297D: "The 21227N antibody was also produced as a third version with a N297D mutation" (antibody, V domains shown) VH: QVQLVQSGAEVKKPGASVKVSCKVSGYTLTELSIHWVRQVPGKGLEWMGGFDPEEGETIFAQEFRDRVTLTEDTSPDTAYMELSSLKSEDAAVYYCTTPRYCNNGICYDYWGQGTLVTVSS VL: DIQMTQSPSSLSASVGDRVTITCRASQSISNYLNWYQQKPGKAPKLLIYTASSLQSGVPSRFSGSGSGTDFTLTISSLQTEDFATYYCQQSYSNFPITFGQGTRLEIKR
-- reply -4.42

-- ask Identify the reported log10 kd for the following entry. H1H27731P-N297Q: one of "Twelve anti-MSR1 antibodies"; "made with an N297Q single point mutation in human Fcγ portion" (antibody, V domains shown) VH: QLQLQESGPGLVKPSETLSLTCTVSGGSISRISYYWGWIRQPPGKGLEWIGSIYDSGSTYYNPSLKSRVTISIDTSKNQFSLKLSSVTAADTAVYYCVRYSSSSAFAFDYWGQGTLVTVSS VL: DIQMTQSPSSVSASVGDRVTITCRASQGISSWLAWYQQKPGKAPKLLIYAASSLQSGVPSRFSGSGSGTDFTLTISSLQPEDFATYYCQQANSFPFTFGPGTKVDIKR
-- reply -4.65

-- ask Identify the reported log10 kd for the following entry. H1H27729P-N297Q: anti-MSR1 antibody "made with an N297Q single point mutation in human Fcγ portion" (antibody, V domains shown) VH: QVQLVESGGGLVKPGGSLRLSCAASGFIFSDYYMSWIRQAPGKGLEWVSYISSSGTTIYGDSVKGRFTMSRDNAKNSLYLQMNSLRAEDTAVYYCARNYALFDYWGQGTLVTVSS VL: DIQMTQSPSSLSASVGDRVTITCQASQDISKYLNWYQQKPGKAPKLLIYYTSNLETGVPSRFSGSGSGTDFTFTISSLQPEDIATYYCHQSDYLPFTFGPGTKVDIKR
-- reply -2.97

-- ask Identify the reported log10 kd for the following entry. H1H21231N-N297Q: modified version of "21231N (H1H21231N-N297Q) anti-MSR1 antibodies" with "a N297Q single point mutation" (antibody, V domains shown) VH: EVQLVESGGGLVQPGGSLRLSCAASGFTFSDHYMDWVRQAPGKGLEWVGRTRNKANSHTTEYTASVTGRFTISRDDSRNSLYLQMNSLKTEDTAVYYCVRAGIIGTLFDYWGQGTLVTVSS VL: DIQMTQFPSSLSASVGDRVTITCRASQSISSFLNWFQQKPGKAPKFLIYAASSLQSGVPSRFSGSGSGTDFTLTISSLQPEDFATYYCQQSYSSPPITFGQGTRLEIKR
-- reply -4.23

-- ask Identify the reported log10 kd for the following entry. H1H21227N: "anti-MSR1 antibodies ... (21227N, 21231N, 21234N) were produced with the original human Fcγ portion"; "H1H" = human IgG1 Fc (antibody, V domains shown, human IgG1 Fc, "anti-MSR1 antibodies ; (21227N, 21231N, 21234N) were produced with the original human Fcγ portion"; "H1H" = human IgG1 Fc) VH: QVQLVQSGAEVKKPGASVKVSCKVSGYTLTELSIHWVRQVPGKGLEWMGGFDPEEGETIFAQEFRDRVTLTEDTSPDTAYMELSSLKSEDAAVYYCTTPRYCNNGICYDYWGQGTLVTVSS VL: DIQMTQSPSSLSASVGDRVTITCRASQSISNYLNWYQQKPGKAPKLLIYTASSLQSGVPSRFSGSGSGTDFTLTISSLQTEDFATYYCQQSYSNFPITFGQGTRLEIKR
-- reply -4.84

-- ask Identify the reported log10 kd for the following entry. H1H27734P-N297Q: one of "Twelve anti-MSR1 antibodies"; "made with an N297Q single point mutation in human Fcγ portion" (antibody, V domains shown) VH: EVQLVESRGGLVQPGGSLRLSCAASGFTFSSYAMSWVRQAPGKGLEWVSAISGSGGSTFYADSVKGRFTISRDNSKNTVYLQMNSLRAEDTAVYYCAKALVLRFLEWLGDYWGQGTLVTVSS VL: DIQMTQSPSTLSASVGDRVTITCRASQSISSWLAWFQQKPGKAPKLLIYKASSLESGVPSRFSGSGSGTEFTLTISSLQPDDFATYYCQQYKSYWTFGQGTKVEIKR
-- reply -2.95
